Molecular target: T1, human CD73 (huCD73) protein, antigen of the Biacore assay (human, UniProt P21589 27-547, limits assumed)
T1 construct: also called human CD73 antigen
T1 sequence (looked up): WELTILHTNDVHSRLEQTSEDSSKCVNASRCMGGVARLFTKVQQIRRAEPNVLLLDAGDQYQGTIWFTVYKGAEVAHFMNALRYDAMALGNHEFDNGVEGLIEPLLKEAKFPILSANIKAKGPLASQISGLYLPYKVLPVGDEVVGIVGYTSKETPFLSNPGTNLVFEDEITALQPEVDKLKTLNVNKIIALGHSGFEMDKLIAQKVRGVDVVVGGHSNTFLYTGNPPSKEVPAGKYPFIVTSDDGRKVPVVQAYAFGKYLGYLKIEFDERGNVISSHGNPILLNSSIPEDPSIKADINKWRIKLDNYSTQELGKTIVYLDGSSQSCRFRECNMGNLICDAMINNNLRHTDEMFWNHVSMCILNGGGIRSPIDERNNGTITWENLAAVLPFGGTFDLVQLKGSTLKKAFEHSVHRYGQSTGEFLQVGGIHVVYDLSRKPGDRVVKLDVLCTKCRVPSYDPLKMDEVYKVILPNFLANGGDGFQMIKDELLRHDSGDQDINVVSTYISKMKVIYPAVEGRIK
Test: SPR Biacore T200; antibody captured on Protein A chip, CD73 in flow; 1:1 Langmuir
Measured metric: koff

[
  {
    "Binder": "Hab108.23 (antibody, V domains shown, VL2 + VH3; full-length antibody) VH: EVTLKESGPVLVKPTETLTLTCTVSGFSLSSYGIQWVRQPPGKLLEWLGVIWSGGSADYNAAFISRLTISKDTSKSQVVLTMTNMDPVDTATYYCAGQYGSVWGQGTLVTVSS VL: DIQMTQSPSSLSASVGDRVTITCRASQDIGDRLNWLQQKPGKAIKRLIYATSSLDSGVPSRFSGSGSGTEYTLTISSLQPEDFATYYCLQYAGSWTFGGGTKVEIK",
    "Measured metric": "koff",
    "Val": "0.000187 s⁻¹"
  },
  {
    "Binder": "Hab127.42 (antibody, V domains shown, VL4 + VH2; recombined with human heavy and light constant regions) VH: EVQLVQSGAEVKKPGASVKVSCKASGYTFTAYFMNWVMQAPGQGLEWMGRIYHNNGDTFYSQKFKGRVTMTVDKSTSTVYMELSSLRSEDTAVYYCATSYVGDWGQGTTVTVSS VL: DIQMTQSPSSLSASVGDRVTITCRASQDIGDSLNWLQQKPGGALKRLIYATSSLDSGVPSRFSGSGSGSDYTLTISSLQPEDFATYYCLQYASFPWTFGGGTKVEIK",
    "Measured metric": "koff",
    "Val": "3.94e-05 s⁻¹"
  },
  {
    "Binder": "Hab108.45 (antibody, V domains shown, VL4 + VH5; full-length antibody) VH: EVTLKESGPVLVKPTETLTLTCTVSGFSLKSYGIQWVRQPPGKLLEWLGVIWSGGSADYNAAFISRLTISKDTSKSQVVLTMTNMDPVDTATYYCAGQYGSVWGQGTLVTVSS VL: DIQMTQSPSSLSASVGDRVTITCRASQDIGDRLNWLQQKPGGAIKRLIYATSSLDSGVPSRFSGSGSGSEYTLTISSLQPEDFADYYCLQYAGSWTFGGGTKVEIK",
    "Measured metric": "koff",
    "Val": "7.38e-05 s⁻¹"
  },
  {
    "Binder": "Hab110.24 (antibody, V domains shown, VL2 + VH4; recombined with human heavy and light constant regions) VH: EVQLVQSGAEVKKPGASVKVSCKASGYTFTSYTMHWVRQAPGQRLEWIGYINPNSFYIEYNQKFKDKATLTADTSASTAYMELSSLRSEDTAVYYCARGDYDLFYDMDNWGQGTTVTVSS VL: DIQMTQSPSSLSASVGDRVTITCRASQDIGNSLNWLQQKPGKAIKRLIYATFRLDSGVPSRFSGSRSGTEYTLTISSLQPEDFATYYCQQYASFPWTFGGGTKVEIK",
    "Measured metric": "koff",
    "Val": "6.2e-05 s⁻¹"
  }
]

Okay, now this binder:
*Q* Record request: koff value, item CPX006 (antibody CPX-006 disclosed in patent application WO2018013611) (antibody, V domains shown) VH: QVQLVQSGAEVEKPGASVKVSCKASGYTFTSYWITWVRQAPGQGLEWMGDIYPGSGNTNYNEKFKTRVTITADKSTSTAYMELSSLRSEDTAVYYCAKEGGLTTEDYALDYWGQGTLVTVSS VL: EIVLTQSPATLSLSPGERATLSCRASKNVSTSGYSYMHWYQQKPGQAPRLLIYLASNLESGIPPRFSGSGYGTDFTLTINNIESEDAAYYFCQHSRELPFTFGQGTKVEIKR
*A* 0.000368 s⁻¹
